Reported values of predicted hepatic bioavailability (Fh) from hepatocyte stability at 1 µM for individual entries
PROTOCOL_TEXT: Metabolic stability in rat hepatocytes assessed as bioavailability at 1 uM measured upto 90 mins by LC-MS/MS analysis
Assay type: ADME, Hepatocyte
Response body: numeric value in %, unit text excluded.

The examples below pair each entry with its known result.
O=C1NN=C(c2ccc(N3CCC(F)(F)CC3)c(F)c2)CO1
84
C[C@@H]1CC(=O)NN=C1c1ccc(N2CCCCC2)cc1
27
C[C@@H]1OC(=O)NN=C1c1ccc(-c2ccc(F)cc2)c(C(F)(F)F)c1
94
O=C1NN=C(c2ccc(N3CCOCC3)c(F)c2)CO1
94
C[C@@H]1OC(=O)NN=C1c1ccc(-c2cnn(C(F)F)c2)c(C(F)(F)F)c1
99

Would you kindly share the measured predicted hepatic bioavailability (Fh) from hepatocyte stability at 1 µM for `C[C@@H]1OC(=O)NN=C1c1ccc(N2CCOCC2)c(F)c1` ?
90

Would you kindly share the measured predicted hepatic bioavailability (Fh) from hepatocyte stability at 1 µM for `C[C@@H]1OC(=O)NN=C1c1ccc(-c2ccc(Cl)cn2)c(C(F)(F)F)c1` ?
78

Would you kindly share the measured predicted hepatic bioavailability (Fh) from hepatocyte stability at 1 µM for `C[C@@H]1OC(=O)NN=C1c1ccc(-n2cc(C(F)(F)F)cn2)c(C(F)(F)F)c1` ?
93

Would you kindly share the measured predicted hepatic bioavailability (Fh) from hepatocyte stability at 1 µM for `C[C@@H]1OC(=O)NN=C1c1ccc(N2CCOCC2)c(C(F)(F)F)c1` ?
84

Would you kindly share the measured predicted hepatic bioavailability (Fh) from hepatocyte stability at 1 µM for `O=C1NN=C(c2ccc(N3CCC(F)(F)CC3)c(C(F)(F)F)c2)CO1` ?
67

Would you kindly share the measured predicted hepatic bioavailability (Fh) from hepatocyte stability at 1 µM for `O=C1NN=C(c2ccc(-c3ccc(F)cc3)c(F)c2)CO1` ?
84
